Test: Pharmacokinetics in female CD1 mice (oral / intravenous)
Type: in vivo
Details: female, CD1, plasma, intravenous; mouse PK
Experimental: Female CD1 mice (N=3) received a single oral (gavage) or a single intravenous (bolus) injection of compound. […] Consecutive blood samples were taken sub-lingually under isofluorane inhalation from animals after 0.083 (IV), 0.25, 0.5, 1, 2, 4, 6 and 24 h and were further processed to obtain plasma. Samples were protein precipitated and analyzed by LC/MS/MS.
property: clearance (mL/min/kg)

| molecule | property | observed |
| --- | --- | --- |
| CC1(N)CCN(c2nc(N)c(-c3cccc(Cl)c3Cl)c(C(N)=O)n2)CC1 (single isomer, unassigned) | clearance | 37.3 |
| Cc1nc(N2CCC3(CC2)CO[C@@H](C)[C@H]3N)nc(C(N)=O)c1-c1cccc(Cl)c1Cl (single isomer, unassigned) | clearance | 12.8 |

----------
target: Kv11.1 (hERG) ion channel (Homo sapiens (Human)); type: cell-based; conditions: ratio of hERG Ki (patch clamp) to pERK IC50 in KYSE520
Sequence (Q12809 whole entry): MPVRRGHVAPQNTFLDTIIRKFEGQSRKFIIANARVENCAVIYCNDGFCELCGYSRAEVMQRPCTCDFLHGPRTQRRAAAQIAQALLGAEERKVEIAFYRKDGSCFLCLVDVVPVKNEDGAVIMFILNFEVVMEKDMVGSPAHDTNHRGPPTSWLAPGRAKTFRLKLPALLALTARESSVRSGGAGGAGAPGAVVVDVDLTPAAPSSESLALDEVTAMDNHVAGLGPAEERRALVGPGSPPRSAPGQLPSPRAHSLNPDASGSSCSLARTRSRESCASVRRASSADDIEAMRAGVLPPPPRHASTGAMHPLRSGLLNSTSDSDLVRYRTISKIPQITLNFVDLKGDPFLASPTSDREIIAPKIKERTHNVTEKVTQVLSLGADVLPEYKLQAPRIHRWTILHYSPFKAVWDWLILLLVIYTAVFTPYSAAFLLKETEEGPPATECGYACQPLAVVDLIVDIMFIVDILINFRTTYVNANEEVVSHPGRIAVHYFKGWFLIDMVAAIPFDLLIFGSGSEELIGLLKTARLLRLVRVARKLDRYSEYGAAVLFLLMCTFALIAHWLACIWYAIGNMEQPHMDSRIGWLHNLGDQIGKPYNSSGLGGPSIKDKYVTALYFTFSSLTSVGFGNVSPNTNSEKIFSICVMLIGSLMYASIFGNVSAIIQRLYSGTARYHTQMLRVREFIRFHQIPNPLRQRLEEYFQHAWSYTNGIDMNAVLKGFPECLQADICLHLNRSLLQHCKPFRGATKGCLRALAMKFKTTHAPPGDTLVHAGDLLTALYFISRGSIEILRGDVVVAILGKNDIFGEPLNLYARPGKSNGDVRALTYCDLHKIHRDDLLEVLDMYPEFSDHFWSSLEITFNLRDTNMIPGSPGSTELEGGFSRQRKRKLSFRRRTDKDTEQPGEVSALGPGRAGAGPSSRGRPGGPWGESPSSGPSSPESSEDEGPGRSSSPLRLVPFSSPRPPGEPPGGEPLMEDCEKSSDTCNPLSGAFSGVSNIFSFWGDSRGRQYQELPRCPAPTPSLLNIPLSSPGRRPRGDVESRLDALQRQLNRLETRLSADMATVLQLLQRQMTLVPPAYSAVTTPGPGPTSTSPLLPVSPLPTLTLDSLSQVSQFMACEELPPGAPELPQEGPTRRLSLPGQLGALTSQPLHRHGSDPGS
Structures can show the parent of a compound that is named as a salt.
Split between hErg and cell activity Ki(patch Clamp)/IC50 (KYSE) values for the molecules below.
property: Split between hErg and cell activity Ki(patch Clamp)/IC50 (KYSE)

| molecule | observed |
| --- | --- |
| NC(=O)c1nc(N2CCC3(CC2)Oc2ccccc2[C@H]3N)nc(N)c1-c1cccc(Cl)c1Cl [Compound 123, di-hydrochloride] | >100 |
| C[C@@H]1OCC2(CCN(c3nc(N)c(-c4cccc(Cl)c4Cl)c(C(N)=O)n3)CC2)[C@@H]1N | >10 |
| CC1(N)CCN(c2nc(N)c(-c3cccc(Cl)c3Cl)c(C(N)=O)n2)CC1 | >14 |
| NC(=O)c1nc(N2CCC3(CC2)Cc2ccccc2[C@H]3N)nc(N)c1-c1cccc(Cl)c1Cl (single isomer, unassigned) | >50 |
| NC(=O)c1nc(N2CCC3(CC2)Cc2scnc2[C@H]3N)nc(N)c1-c1cccc(Cl)c1Cl | >600 |
| Cc1nc(N2CCC3(CC2)Cc2ccccc2[C@H]3N)nc(C(N)=O)c1-c1cccc(Cl)c1Cl (atropisomer, axis not shown; (M)) | 97 |

----------
molecular target: Full length SHP2 protein (Recombinant Human SHP-2) (Homo sapiens, UniProt Q06124); experiment: SHP2 biochemical assay (DiFMUP substrate, activating peptide IRSI_2pY); conditions: wild-type SHP-2 with activating peptide; read-out: SHP-2 IC50 peptide
Sequence (Q06124 2-593 limits assumed): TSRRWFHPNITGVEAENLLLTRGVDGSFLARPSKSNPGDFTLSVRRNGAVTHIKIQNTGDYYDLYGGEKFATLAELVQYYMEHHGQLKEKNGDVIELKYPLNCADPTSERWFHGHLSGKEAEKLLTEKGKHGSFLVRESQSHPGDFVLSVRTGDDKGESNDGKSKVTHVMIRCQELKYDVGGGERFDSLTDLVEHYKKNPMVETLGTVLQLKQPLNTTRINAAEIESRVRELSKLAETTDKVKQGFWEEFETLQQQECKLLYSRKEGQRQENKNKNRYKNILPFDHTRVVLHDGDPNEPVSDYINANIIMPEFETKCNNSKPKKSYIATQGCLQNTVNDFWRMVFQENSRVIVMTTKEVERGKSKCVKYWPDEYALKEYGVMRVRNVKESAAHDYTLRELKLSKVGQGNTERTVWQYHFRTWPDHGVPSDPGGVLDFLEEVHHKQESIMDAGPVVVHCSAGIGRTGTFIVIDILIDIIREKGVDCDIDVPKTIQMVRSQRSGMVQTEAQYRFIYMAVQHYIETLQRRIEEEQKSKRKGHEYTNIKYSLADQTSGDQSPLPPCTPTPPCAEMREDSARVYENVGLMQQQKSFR
pIC50: −log10 of the molar value.
property: pIC50

| molecule | experimentalTarget | property | observed |
| --- | --- | --- | --- |
| NC(=O)c1nc(N2CCC3(CC2)Cc2ccccc2[C@H]3N)nc(N)c1-c1cccc(Cl)c1Cl (single isomer, unassigned) | Full length SHP2 protein (Recombinant Human SHP-2) (Homo sapiens, UniProt Q06124) | pIC50 | 9.40 |

----------
molecular target: Full length SHP2 protein (Recombinant Human SHP-2) (Homo sapiens, UniProt Q06124); test: SHP2 biochemical assay (DiFMUP substrate, activating peptide IRSI_2pY); settings: DiFMUP substrate, activating peptide IRSI_2pY, 60 min at RT; read-out: SHP-2 Biochemical assay IC50
pIC50: −log10 of the molar value.
pIC50 values for the molecules below.
property: pIC50

| molecule | property | resultQualifier | observed |
| --- | --- | --- | --- |
| NC[C@@H]1CN(c2nc(N)c(-c3cccc(Cl)c3Cl)c(C(N)=O)n2)C[C@H]1c1ccccc1 | pIC50 | = | 5.82 |
| Cc1nc(N2CCC3CCC(C2)N3)nc(C(N)=O)c1-c1cccc(Cl)c1Cl (stereo not shown) | pIC50 | = | 5.21 |
| NC[C@@]12CCC[C@@H]1CN(c1nc(N)c(-c3cccc(Cl)c3Cl)c(C(N)=O)n1)C2 (atropisomer, axis not shown; (M)) [Compound 99] | pIC50 | = | 5.43 |
| CC1(N)CCN(c2nc(Cl)c(-c3cccc(Cl)c3Cl)c(C(N)=O)n2)CC1 (atropisomer, axis not shown; (M)) [Compound 78] | pIC50 | = | 5.85 |
| Cc1nc(N2CC3CCC(N)C3C2)nc(C(N)=O)c1-c1cccc(Cl)c1Cl (stereo not shown) | pIC50 | = | 5.32 |
| Cc1nc(N2CC(N)(CO)C2)nc(C(N)=O)c1-c1cccc(Cl)c1Cl | pIC50 | < | 5.00 |
| NC(=O)c1nc(N2CCC(N)(C(F)F)CC2)nc(N)c1-c1cccc(Cl)c1Cl (atropisomer, axis not shown; (M)) [Compound 107] | pIC50 | = | 5.49 |

# credit: patent US11033547B2
